Reference for the values: patent US9051270B2

protocol summary: Microsomal stability assay, human liver microsomes (HLM)
Type: in vitro ADME
details: human liver microsomes 0.5 mg/mL, 1 uM substrate, 2 mM NADPH, 37° C., referenced against time zero control
test readout: HLM (% remaining @ 30 minutes) (%)

INSERT INTO assay_data (compound, test_result) VALUES
  ('O=C(Nc1cc[nH]c(=O)c1)c1cc(F)ccc1Oc1ccc(OC(F)(F)F)cc1 [Compound 101]', 97),
  ('Cc1cc(F)ccc1Oc1ccc(C(F)(F)F)cc1C(=O)Nc1cc[nH]c(=O)c1 [Compound 31]', 92),
  ('O=C(Nc1cc[nH]c(=O)c1)c1cc(C(F)(F)F)ccc1Oc1ccc(F)cc1Cl [Compound 29]', 107),
  ('O=C(Nc1cc[nH]c(=O)c1)c1ccc(C(F)(F)F)cc1Oc1ccc(F)cc1CO [Compound 157]', 101.5),
  ('COc1ccc(Oc2cc(Cl)c(Cl)cc2C(=O)Nc2cc[nH]c(=O)c2)cc1F [Compound 115]', 102),
  ('Cc1cc(F)ccc1Oc1ccc(Cl)cc1C(=O)Nc1cc[nH]c(=O)c1 [Compound 68]', 98),
  ('O=C(Nc1cc[nH]c(=O)c1)c1ccc(C(F)(F)F)cc1OCCCC(F)(F)F [Compound 123]', 103),
  ('Cc1cc(F)ccc1Oc1cc(Cl)ccc1C(=O)Nc1cc[nH]c(=O)c1 [Compound 20]', 104),
  ('O=C(Nc1cc[nH]c(=O)c1)c1cc(OC(F)(F)F)ccc1Oc1ccc(F)cc1Cl [Compound 37]', 100),
  ('O=C(Nc1cc[nH]c(=O)c1)c1ccc(C(F)(F)F)cc1Oc1ccc(F)cc1F [Compound 7]', 97),
  ('O=C(Nc1cc[nH]c(=O)c1)c1cc(F)c(Cl)cc1Oc1ccc(F)cc1Cl [Compound 109]', 103),
  ('COc1cc(F)ccc1Oc1ccc(C(F)(F)F)cc1C(=O)Nc1cc[nH]c(=O)c1 [Compound 30]', 76),
  ('O=C(Nc1cc[nH]c(=O)c1)c1ccc(C(F)(F)F)cc1Oc1ccc(OC(F)F)cc1 [Compound 82]', 101),
  ('O=C(Nc1cc[nH]c(=O)c1)c1ccc(C(F)(F)F)cc1OCC1CCCC1 [Compound 120]', 87),
  ('O=C(Nc1cc[nH]c(=O)c1)c1cc(Cl)c(Cl)cc1Oc1ccc(F)cc1 [Compound 113]', 105),
  ('CCOc1ccc(Oc2ccc(C(F)(F)F)cc2C(=O)Nc2cc[nH]c(=O)c2)cc1 [Compound 44]', 93),
  ('O=C(Nc1cc[nH]c(=O)c1)c1cc(Cl)ccc1Oc1ccc(F)cc1Cl [Compound 66]', 100);
